B1: LINE1-full (parent)
chain: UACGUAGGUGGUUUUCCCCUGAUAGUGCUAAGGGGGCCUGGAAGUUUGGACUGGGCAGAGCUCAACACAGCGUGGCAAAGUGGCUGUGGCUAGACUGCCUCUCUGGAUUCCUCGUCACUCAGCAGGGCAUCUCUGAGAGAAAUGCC

- Variants of: B1
- test.name: self-cleavage, relative activity (ratio to wild type); higher = more cleavage; in vitro, sequencing; the parent is a self-cleaving ribozyme
Grouping rule (self-cleavage): LOW: < 0.1; MID: ≥ 0.1 and < 1; HIGH: ≥ 1

residues	class
UACGUAGGUGGUUUUCCCCUGAUAGUGCUAAGGGGGCCUGGAAGUUUGGACUGGGCAGAGCUCAACACAGCGUGGCACAGUGGCUGUGGCUAGACUGCCUCUCUGGAUUCCUCGUCACUCAGCAGGGCAUCUCUGAGAGAAAUGCC	HIGH
UACGUAGGUGGUUUUCCCCUGAUAGUGCUAAGGGGGCCUGGAAGUUUGGACUGGGCAGAGCUCAACACAGCGUGGCAAAGUGGCUGUGGCUGGACUGCCUCUCUGGAUUCCUCGUCACUCAGCAGGGCAUCUCAGAGAGAAAUGCC	LOW
UACGUAGGUGGAUUUCCCCUGAUAGUGCUAAGGGGGCCUGGAAGUUUGGACUGGGCAGAGCUCAACACAGCGUGGCAAAGUGGCUGUGGCUAGACUGCCUCUCUGGAUUCCUCGUCACUCAGCAGGGCAUCUCUGAGAGAGAUGCC	HIGH
UACGUAGGUGGUUUUCCCCGGAUAGUGCUAAGGGGGCCUGGAAGUUUGGACUGGGCAGAGCUCAACACAGCGCGGCAAAGUGGCUGUGGCUAGACUGCCUCUCUGGAUUCCUCGUCACUCAGCAGGGCAUCUCUGAGAGAAAUGCC	HIGH
UACGUAGGUGGUUUUCCCCUGAUAGUGCUAAGGGGGCCUGGAAGUUUGGACUGGGCAGAGCUCAACGCAGCGUGGCAAAGUGGCUGUGGCUAGACUGCCUCUCUGGAUUCCUCGUCACUCAGCAGGGCAUCUCUGGGAGAAAUGCC	MID
UACGUAGGUGGUUUUCCCCUGAUAGUGCUGAGGGGGCCUGGAAGUUUGGACUGGGCAGAGCUCAACACAGCGGGGCAAAGUGGCUGUGGCUAGACUGCCUCUCUGGAUUCCUCGUCACUCAGCAGGGCAUCUCUGAGAGAAAUGCC	MID
UACGUAGGUGGUUUUCCCCUGAUAGUGCUAAGGGGGCCUGGAAGCUUGGACUGGGCAAAGCUCAACACAGCGUGGCAAAGUGGCUGUGGCUAGACUGCCUCUCUGGAUUCCUCGUCACUCAGCAGGGCAUCUCUGAGAGAAAUGCC	LOW
UACGUAGGUGGUUUUCCCCUGACAGUGCUAAGGGGGCCUGGAAGUUUGGACUGGGCAGAGCUCAACACAGCGUGGCAAAGUGGCUGUGGCUAGACUGCCUCUCUGGAUUCCUCGUCACUCAGCAGGGCAUCUCUGAGAGUAAUGCC	HIGH
UACGUAGGUGGUUUUCCCCUAAUAGUGCUAAGGGGGCCUGGAAGUUUGGACUGGGCAGAGCUCAACACAGCGUGGCAAAGUGGCUGUGGCUAGACUGCCUCUCUGGAUUCCUCGUCACUCAGCAGGGCAUCUCUGAGAGAGAUGCC	HIGH
UACGUAGGUGGUUUUCCCCUGAUAGUGCUAAGGGGGCCUGGAAGUUUGGACUGGGCAGAGCUCAACACAGCGUGGCAAAGUGGAUGUGGCUAGACUGCCCCUCUGGAUUCCUCGUCACUCAGCAGGGCAUCUCUGAGAGAAAUGCC	MID

Values compiled from the RNAGym collection of RNA variant scans (doi:10.7554/elife.90254).
